- TESTED SYSTEM: D(2) dopamine receptor (Homo sapiens, UniProt P14416)
- Sequence (P14416 whole entry): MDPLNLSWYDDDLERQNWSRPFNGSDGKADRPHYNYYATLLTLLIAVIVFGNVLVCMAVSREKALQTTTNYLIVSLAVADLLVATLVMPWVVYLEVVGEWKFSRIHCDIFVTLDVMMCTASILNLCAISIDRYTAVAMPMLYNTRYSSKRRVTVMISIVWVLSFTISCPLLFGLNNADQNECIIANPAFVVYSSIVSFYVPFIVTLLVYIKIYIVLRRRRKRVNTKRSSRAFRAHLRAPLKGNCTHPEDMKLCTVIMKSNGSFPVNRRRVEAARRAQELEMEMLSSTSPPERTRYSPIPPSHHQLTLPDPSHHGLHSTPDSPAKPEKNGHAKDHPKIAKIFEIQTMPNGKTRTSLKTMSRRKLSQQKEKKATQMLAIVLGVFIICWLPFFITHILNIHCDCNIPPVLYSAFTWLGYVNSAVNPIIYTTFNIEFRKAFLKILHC
- ASSAY METHOD TEXT: Negative allosteric modulation of recombinant human D2L receptor expressed in Flp-In CHO cells assessed as inhibition of dopamine-induced reduction in forskolin stimulated cAMP accumulation by measuring modulation of dopamine efficacy preincubated for 30 mins followed by forskolin stimulation and measured after 30 mins by BRET assay
- Type: functional, cell-based
Provide the reported log(activity) of each item.

-- ask Answer with the recorded log(activity) for the compound listed here: CCN(CC)c1ncnc2sc3c(c12)CCCCCC3
-- reply -3

-- ask Answer with the recorded log(activity) for the compound listed here: c1nc(NC2CC2)c2c3c(sc2n1)CCC3
-- reply -0.55

-- ask Answer with the recorded log(activity) for the compound listed here: c1nc(N2CCNCC2)c2c3c(sc2n1)CCCC3
-- reply 0

-- ask Answer with the recorded log(activity) for the compound listed here: CCN(CC)c1ncnc2sccc12
-- reply -0.89

-- ask Answer with the recorded log(activity) for the compound listed here: c1nc(NC2CCC2)c2c3c(sc2n1)CCCC3
-- reply -0.65

-- ask Answer with the recorded log(activity) for the compound listed here: c1nc(NCC2CC2)c2c3c(sc2n1)CCCC3
-- reply -0.54

-- ask Answer with the recorded log(activity) for the compound listed here: c1nc(NC2CC2)c2c(C3CCCCC3)csc2n1
-- reply -1.04

-- ask Answer with the recorded log(activity) for the compound listed here: c1nc(NC2CCC2)c2ccsc2n1
-- reply 0

-- ask Answer with the recorded log(activity) for the compound listed here: c1nc(NC2CC2)c2c3c(sc2n1)CCCC3
-- reply -1.48

-- ask Answer with the recorded log(activity) for the compound listed here: CCN(CC)c1ncnc2scc(-c3ccccc3)c12
-- reply 0

-- ask Answer with the recorded log(activity) for the compound listed here: CCN(CC)c1ncnc2sc3c(c12)CCCC3
-- reply -3

-- ask Answer with the recorded log(activity) for the compound listed here: c1nc(NC2CC2)c2c3c(sc2n1)CCCCCC3
-- reply -1

-- ask Answer with the recorded log(activity) for the compound listed here: c1nc(NC2CCC2)c2c(C3CCCCC3)csc2n1
-- reply -1.55

-- ask Answer with the recorded log(activity) for the compound listed here: CC(C)(C)Nc1ncnc2sc3c(c12)CCCC3
-- reply 0

-- ask Answer with the recorded log(activity) for the compound listed here: c1nc(NC2CC2)c2ccsc2n1
-- reply 0

-- ask Answer with the recorded log(activity) for the compound listed here: CCN(CC)c1ncnc2sc(C)c(C)c12
-- reply 0

-- ask Answer with the recorded log(activity) for the compound listed here: c1nc(NC2CCC2)c2c3c(sc2n1)CCC3
-- reply 0

-- ask Answer with the recorded log(activity) for the compound listed here: c1ccc(-c2cc3c(NC4CC4)ncnc3s2)cc1
-- reply -0.37

-- ask Answer with the recorded log(activity) for the compound listed here: c1nc(N2CCCCC2)c2c3c(sc2n1)CCCC3
-- reply 0

-- ask Answer with the recorded log(activity) for the compound listed here: c1nc(NC2CCC2)c2c3c(sc2n1)CCCCC3
-- reply -1.22

-- ask Answer with the recorded log(activity) for the compound listed here: c1ccc(-c2cc3c(NC4CCC4)ncnc3s2)cc1
-- reply 0

-- ask Answer with the recorded log(activity) for the compound listed here: c1nc(N2CCOCC2)c2c3c(sc2n1)CCCC3
-- reply 0

-- ask Answer with the recorded log(activity) for the compound listed here: c1nc(NC2CC2)c2c3c(sc2n1)CCCCC3
-- reply -1.3

-- ask Answer with the recorded log(activity) for the compound listed here: Cc1sc2ncnc(NC3CCC3)c2c1C
-- reply -0.9

-- ask Answer with the recorded log(activity) for the compound listed here: CCN(CC)c1ncnc2sc3c(c12)CCC3
-- reply -0.85

-- ask Answer with the recorded log(activity) for the compound listed here: c1nc(N2CCCC2)c2c3c(sc2n1)CCCC3
-- reply -0.76

-- ask Answer with the recorded log(activity) for the compound listed here: c1nc(NC2CCC2)c2c3c(sc2n1)CCCCCC3
-- reply -0.58

-- ask Answer with the recorded log(activity) for the compound listed here: c1ccc(-c2csc3ncnc(NC4CCC4)c23)cc1
-- reply 0

-- ask Answer with the recorded log(activity) for the compound listed here: CCN(CC)c1ncnc2sc(-c3ccccc3)cc12
-- reply -3

-- ask Answer with the recorded log(activity) for the compound listed here: c1ccc(-c2csc3ncnc(NC4CC4)c23)cc1
-- reply 0

----------
- TESTED SYSTEM: D(2) dopamine receptor (Homo sapiens)
- ASSAY METHOD TEXT: Negative allosteric modulation of recombinant human D2L receptor expressed in Flp-In CHO cells assessed as inhibition of dopamine-induced reduction in forskolin stimulated cAMP accumulation by measuring equilibrium dissociation constant preincubated for 30 mins followed by forskolin stimulation and measured after 30 mins by BRET assay
- Format: functional, cell-based
Provide the reported log10 of Kb of each item.
All values: base-10 log of Kb in µM.

-- ask Answer with the recorded log10 of Kb for the compound listed here: CCN(CC)c1ncnc2sc3c(c12)CCCCCC3
-- reply 1.16

-- ask Answer with the recorded log10 of Kb for the compound listed here: c1nc(NC2CCC2)c2c(C3CCCCC3)csc2n1
-- reply 0.47

-- ask Answer with the recorded log10 of Kb for the compound listed here: CCN(CC)c1ncnc2sc(-c3ccccc3)cc12
-- reply -0.05

-- ask Answer with the recorded log10 of Kb for the compound listed here: CC(C)(C)Nc1ncnc2sc3c(c12)CCCC3
-- reply 1.97

-- ask Answer with the recorded log10 of Kb for the compound listed here: c1nc(NC2CC2)c2c3c(sc2n1)CCCCCC3
-- reply -0.28

-- ask Answer with the recorded log10 of Kb for the compound listed here: c1ccc(-c2cc3c(NC4CC4)ncnc3s2)cc1
-- reply 0.80

-- ask Answer with the recorded log10 of Kb for the compound listed here: c1nc(N2CCNCC2)c2c3c(sc2n1)CCCC3
-- reply 1.30

-- ask Answer with the recorded log10 of Kb for the compound listed here: c1nc(NC2CC2)c2c3c(sc2n1)CCCCC3
-- reply 0.47

-- ask Answer with the recorded log10 of Kb for the compound listed here: c1nc(NC2CC2)c2c3c(sc2n1)CCC3
-- reply 0.78

-- ask Answer with the recorded log10 of Kb for the compound listed here: c1nc(NC2CCC2)c2ccsc2n1
-- reply 0.87

-- ask Answer with the recorded log10 of Kb for the compound listed here: CCN(CC)c1ncnc2sc(C)c(C)c12
-- reply 1.29

-- ask Answer with the recorded log10 of Kb for the compound listed here: c1nc(NC2CCC2)c2c3c(sc2n1)CCCC3
-- reply -0.24

----------
Provide the reported Efficacy of each item.
- TESTED SYSTEM: D(2) dopamine receptor (Homo sapiens, UniProt P14416)
- ASSAY METHOD TEXT: Negative allosteric modulation of recombinant human D2L receptor expressed in Flp-In CHO cells assessed as inhibition of dopamine-induced reduction in forskolin stimulated cAMP accumulation by measuring modulation of dopamine efficacy preincubated for 30 mins followed by forskolin stimulation and measured after 30 mins by BRET assay
- Type: functional, cell-based

-- ask Answer with the recorded Efficacy for the molecule listed here: c1nc(NC2CC2)c2c3c(sc2n1)CCC3
-- reply 0.28

-- ask Answer with the recorded Efficacy for the molecule listed here: CCN(CC)c1ncnc2sccc12
-- reply 0.13

-- ask Answer with the recorded Efficacy for the molecule listed here: Cc1sc2ncnc(NC3CCC3)c2c1C
-- reply 0.13

-- ask Answer with the recorded Efficacy for the molecule listed here: c1nc(NC2CCC2)c2c(C3CCCCC3)csc2n1
-- reply 0.03

-- ask Answer with the recorded Efficacy for the molecule listed here: c1nc(NC2CCC2)c2c3c(sc2n1)CCCCCC3
-- reply 0.26

-- ask Answer with the recorded Efficacy for the molecule listed here: c1nc(NCC2CC2)c2c3c(sc2n1)CCCC3
-- reply 0.29

-- ask Answer with the recorded Efficacy for the molecule listed here: c1nc(NC2CC2)c2c3c(sc2n1)CCCCCC3
-- reply 0.1

-- ask Answer with the recorded Efficacy for the molecule listed here: c1ccc(-c2cc3c(NC4CC4)ncnc3s2)cc1
-- reply 0.43

----------
- TESTED SYSTEM: D(2) dopamine receptor (Homo sapiens, UniProt P14416)
- ASSAY METHOD TEXT: Negative allosteric modulation of recombinant human D2L receptor expressed in Flp-In CHO cells assessed as inhibition of dopamine-induced reduction in forskolin stimulated cAMP accumulation by measuring equilibrium dissociation constant preincubated for 30 mins followed by forskolin stimulation and measured after 30 mins by BRET assay
- Format: functional, cell-based
OBSERVATION TYPE: Kb (µM)
Provide the reading as a plain figure in µM.

-- ask Answer with the recorded Kb for the compound listed here: c1nc(NC2CCC2)c2c3c(sc2n1)CCCCC3
-- reply 0.91

-- ask Answer with the recorded Kb for the compound listed here: CCN(CC)c1ncnc2sc3c(c12)CCC3
-- reply 0.74

-- ask Answer with the recorded Kb for the compound listed here: c1nc(N2CCCCC2)c2c3c(sc2n1)CCCC3
-- reply 59.3

-- ask Answer with the recorded Kb for the compound listed here: c1nc(NC2CC2)c2c(C3CCCCC3)csc2n1
-- reply 11.6

-- ask Answer with the recorded Kb for the compound listed here: c1nc(NC2CC2)c2c3c(sc2n1)CCCC3
-- reply 0.88

-- ask Answer with the recorded Kb for the compound listed here: c1nc(N2CCCC2)c2c3c(sc2n1)CCCC3
-- reply 4.23

-- ask Answer with the recorded Kb for the compound listed here: c1nc(NC2CCC2)c2c3c(sc2n1)CCCCCC3
-- reply 3.98

-- ask Answer with the recorded Kb for the compound listed here: c1nc(NC2CC2)c2ccsc2n1
-- reply 21.4

-- ask Answer with the recorded Kb for the compound listed here: c1ccc(-c2cc3c(NC4CCC4)ncnc3s2)cc1
-- reply 4.5

-- ask Answer with the recorded Kb for the compound listed here: CCN(CC)c1ncnc2scc(-c3ccccc3)c12
-- reply 60

-- ask Answer with the recorded Kb for the compound listed here: c1nc(NCC2CC2)c2c3c(sc2n1)CCCC3
-- reply 1.19

-- ask Answer with the recorded Kb for the compound listed here: c1ccc(-c2csc3ncnc(NC4CC4)c23)cc1
-- reply 1.93

-- ask Answer with the recorded Kb for the compound listed here: Cc1sc2ncnc(NC3CCC3)c2c1C
-- reply 2.88
